Structures can show the parent of a compound that is named as a salt.
assay.readout: melting point (°C)
Numbers only, in °C.

The cases that follow already have their melting point on record.
CC(C)(C)c1nc2cc(S(=O)(=O)c3cc(Cl)nc(Cl)c3)ccc2n1CC1CCOCC1 ... 198
CC(=O)N1CCC(Cn2c(C(C)(C)C)nc3cc(S(=O)(=O)c4cnn(C)c4)ccc32)CC1 ... 166.2
CC(C)(C)c1nc2cc(S(=O)(=O)c3ccnc(F)c3)ccc2n1CC1CCC1 (as salt: HCl) (hydrate or solvate) ... 184.3
CC(C)(C)c1nc2cc(S(=O)(=O)c3ccc(S(N)(=O)=O)s3)ccc2n1CC1CCOCC1 ... 259
CC(O)c1ccc(S(=O)(=O)c2ccc3c(c2)nc(C(C)(C)C)n3CC2CCOCC2)s1 (stereo not shown) ... 192

For each of the items listed, what is its melting point?
1. CC(C)(C)c1nc2cc(S(=O)(=O)c3ccn(/C(F)=C\I)c(=O)c3)ccc2n1CC1CCOCC1
2. CCC(CC)Cn1c(C(C)(C)C)nc2cc(S(=O)(=O)c3ccnc(F)c3)ccc21
3. CC(C)(C)c1nc2cc(S(=O)(=O)c3coc(C4OCCO4)c3)ccc2n1CC1CCOCC1
4. CC(=O)Nc1cc(S(=O)(=O)c2ccc3c(c2)nc(C(C)(C)C)n3CC2CCOCC2)ccn1
5. CC(C)(C)c1nc2cc([S+]([O-])c3c(Cl)cncc3Cl)ccc2n1CC1CCOCC1 (stereo not shown)

1. 164.4
2. 130.9
3. 141
4. 262.3
5. 192.9

For each of the items listed, what is its melting point?
1. COc1ccc(S(=O)(=O)c2ccc3c(c2)nc(C(C)(C)C)n3CC2CCOCC2)cn1
2. CC(C)(C)c1nc2cc(S(=O)(=O)c3ccnc(F)c3)ccc2n1CCN1CCCC1
3. CC(C)(C)c1nc2cc(S(=O)(=O)c3ccc(-c4ncon4)s3)ccc2n1CC1CCOCC1

1. 198
2. 115.5
3. 199

* * *

target: human CB1 (hCB1) receptor (Homo sapiens, UniProt P21554); construct: expressed in transfected cells; host or cells: CHO-K1; assay: Inhibition of forskolin-activated cAMP production upon activation of hCB1 (HTRF), CHO-K1 cells; type: cell-based; settings: CB1 pEC50, hCB1-CHO-K1 cells, forskolin-activated cAMP, pEC50=-log(EC50)
Sequence (P21554 whole entry): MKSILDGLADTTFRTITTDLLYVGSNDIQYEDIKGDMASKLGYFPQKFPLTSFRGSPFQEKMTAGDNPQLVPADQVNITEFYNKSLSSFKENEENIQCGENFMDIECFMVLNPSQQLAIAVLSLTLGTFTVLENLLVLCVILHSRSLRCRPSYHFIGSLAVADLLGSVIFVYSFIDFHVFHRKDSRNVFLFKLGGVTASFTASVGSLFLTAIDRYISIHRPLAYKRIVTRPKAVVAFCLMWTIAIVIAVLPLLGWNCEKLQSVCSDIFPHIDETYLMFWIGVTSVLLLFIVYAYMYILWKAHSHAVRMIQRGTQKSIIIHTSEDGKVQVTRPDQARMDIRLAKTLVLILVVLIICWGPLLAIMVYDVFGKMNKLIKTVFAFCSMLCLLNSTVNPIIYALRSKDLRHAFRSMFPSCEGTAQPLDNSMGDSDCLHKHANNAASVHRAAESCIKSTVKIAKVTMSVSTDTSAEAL
For each of the molecules below, state its pEC50.
Numbers only, as −log10 of the molar value.

The cases that follow already have their pEC50 on record.
C=Cc1cc(S(=O)(=O)c2ccc3c(c2)nc(C(C)(C)C)n3CC2CCOCC2)ccn1 ... 5.87
CC(C)(C)c1nc2cc(S(=O)(=O)c3ccnc(OCC(F)(F)F)c3)ccc2n1CC1CCOCC1 ... 6.39

Field: next molecule
Name the recorded pEC50 of the molecule listed here: CC(C)(C)c1nc2cc(S(=O)(=O)c3cncc(C(N)=O)c3)ccc2n1CC1CCOCC1
6.90

* * *

biological target: human CB2 (hCB2) receptor (Homo sapiens); construct: expressed in transfected cells; host or cells: CHO-K1; assay: Inhibition of forskolin-activated cAMP production upon activation of hCB2 (HTRF), CHO-K1 cells; type: cell-based; details: hCB2-CHO-K1 cells, forskolin-activated cAMP, pEC50=-log(EC50); read-out: CB2 pEC50 (converted)
assay.readout: EC50 (nM)
Numbers only, in nM.

The cases that follow already have their EC50 on record.
COCCOc1cc(S(=O)(=O)c2ccc3c(c2)nc(C(C)(C)C)n3CC2CCOCC2)ccn1 [Co. No. 150] ... 1.26
CC(C)(C)c1nc2cc(S(=O)(=O)c3ccc(C(F)(F)F)cn3)ccc2n1CC1CCOCC1 [Co. No. 99] ... 1.32
Cc1oc(S(=O)(=O)c2ccc3c(c2)nc(C(C)(C)C)n3CC2CCOCC2)cc1S(C)(=O)=O [Co. No. 68] ... 3.09

For each of the items listed, what is its EC50?
1. COC(=O)c1cc(C)c(S(=O)(=O)c2ccc3c(c2)nc(C(C)(C)C)n3CC2CCOCC2)s1 [Co. No. 81]
2. CC(C)(C)OC(=O)NCCCOc1cc(S(=O)(=O)c2ccc3c(c2)nc(C(C)(C)C)n3CC2CCOCC2)ccn1 [Co. No. 130]
3. CC(C)(C)c1nc2cc(S(=O)(=O)c3sc(S(C)(=O)=O)cc3Br)ccc2n1CC1CCOCC1 [Co. No. 62]
4. CC(C)(C)c1nc2cc(S(=O)(=O)c3ncc(C(F)(F)F)cc3Cl)ccc2n1CC1CCOCC1 [Co. No. 61]

0.501
2.29
0.589
1.12

* * *

target: human CB1 (hCB1) receptor (Homo sapiens); construct: expressed in transfected cells; host or cells: CHO-K1; assay: Inhibition of forskolin-activated cAMP production upon activation of hCB1 (HTRF), CHO-K1 cells; assay type: cell-based; settings: CB1 pEC50, hCB1-CHO-K1 cells, forskolin-activated cAMP, pEC50=-log(EC50)
For each of the compounds below, state its pEC50.
Give bare numbers, as −log10 of the molar value.

COC(=O)c1cc(S(=O)(=O)c2ccc3c(c2)nc(C(C)(C)C)n3CC2CCOCC2)c[nH]1 [Co. No. 75] ... 5.02
CC(C)(C)c1nc2cc(S(=O)(=O)c3ccc(S(N)(=O)=O)s3)ccc2n1CC1CCOCC1 [Co. No. 47] ... 5.83
CC(C)(C)c1nc2cc(S(=O)(=O)c3nccc(C(N)=O)n3)ccc2n1CC1CCOCC1 [Co. No. 29] ... 5.88
CC(C)(C)Cc1nc2cc(S(=O)(=O)c3cc[n+]([O-])cc3)ccc2n1CC1CCOCC1 [Co. No. 103] ... 5.68
CC(=O)NCCOc1cc(S(=O)(=O)c2ccc3c(c2)nc(C(C)(C)C)n3CC2CCOCC2)ccn1 [Co. No. 121] ... 5.55

For each of the items listed, what is its pEC50?
1. CC(=O)Nc1ccc(S(=O)(=O)c2ccc3c(c2)nc(C(C)(C)C)n3CC2CCOCC2)nn1 [Co. No. 101]
2. CC(C)(C)c1nc2cc(S(=O)(=O)c3ccnc(F)c3)ccc2n1CC1CCC(=O)CC1 [Co. No. 134]
3. CC(=O)c1ccc(S(=O)(=O)c2ccc3c(c2)nc(C(C)(C)C)n3CC2CCOCC2)cn1 [Co. No. 50]
4. CC(C)(C)c1nc2cc(S(=O)(=O)c3ccnc(C(N)=O)c3)ccc2n1CC1CCOCC1 [Co. No. 16]

[6.83, 5.42, 5.35, 6.07]

* * *

biological target: human CB2 (hCB2) receptor (Homo sapiens, UniProt P34972); construct: expressed in transfected cells; host or cells: CHO-K1; assay: Inhibition of forskolin-activated cAMP production upon activation of hCB2 (HTRF), CHO-K1 cells; format: cell-based; conditions: hCB2-CHO-K1 cells, forskolin-activated cAMP, pEC50=-log(EC50); read-out: CB2 pEC50 (converted)
Sequence (P34972 whole entry): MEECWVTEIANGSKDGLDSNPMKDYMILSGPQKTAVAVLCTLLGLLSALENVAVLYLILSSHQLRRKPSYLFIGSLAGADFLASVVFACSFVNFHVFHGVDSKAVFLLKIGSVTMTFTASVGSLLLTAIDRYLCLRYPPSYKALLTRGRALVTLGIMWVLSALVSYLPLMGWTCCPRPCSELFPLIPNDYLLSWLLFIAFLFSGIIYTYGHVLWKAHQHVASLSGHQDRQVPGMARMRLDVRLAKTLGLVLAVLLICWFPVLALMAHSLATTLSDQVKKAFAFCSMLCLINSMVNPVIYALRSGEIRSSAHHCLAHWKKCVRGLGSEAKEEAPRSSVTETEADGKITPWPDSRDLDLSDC
assay.readout: EC50 (nM)
Give bare numbers, in nM.

CC(C)(C)c1nc2cc(S(=O)(=O)c3ccc(C4(C)OCCO4)cn3)ccc2n1CC1CCOCC1 ... 3.02
CC(C)(C)c1nc2cc(S(=O)(=O)c3ccc(C(=O)N4CCCC4)o3)ccc2n1CC1CCOCC1 ... 3.16
Cn1nc(S(=O)(=O)c2ccc3c(c2)nc(C(C)(C)C)n3CC2CCOCC2)ccc1=O ... 1.58

For each of the items listed, what is its EC50?
1. CCCCN(C)c1cc(S(=O)(=O)c2ccc3c(c2)nc(C(C)(C)C)n3CC2CCOCC2)ccn1
2. CC(=O)Nc1cc(S(=O)(=O)c2ccc3c(c2)nc(C(C)(C)C)n3CC2CCOCC2)ccn1
3. Cc1nc(-c2csc(S(=O)(=O)c3ccc4c(c3)nc(C(C)(C)C)n4CC3CCOCC3)c2)no1
4. CC(C)(C)c1nc2cc(S(=O)(=O)c3ccc(=O)[nH]n3)ccc2n1CC1CCOCC1
5. CC(=O)NCCCOc1cc(S(=O)(=O)c2ccc3c(c2)nc(C(C)(C)C)n3CC2CCOCC2)ccn1
6. CC(C)(C)c1nc2cc(S(=O)(=O)c3ccc(C(N)=O)s3)ccc2n1CC1CCOCC1
7. CC(C)(C)c1nc2cc(S(=O)(=O)c3cc(Cl)cc(Cl)n3)ccc2n1CC1CCOCC1

1: 1.74; 2: 1.12; 3: 0.372; 4: 2.51; 5: 1.41; 6: 1.38; 7: 0.741

* * *

For each of the molecules below, state its EC50.
target: human CB2 (hCB2) receptor (Homo sapiens, UniProt P34972); construct: expressed in transfected cells; host or cells: CHO-K1; assay: Inhibition of forskolin-activated cAMP production upon activation of hCB2 (HTRF), CHO-K1 cells; type: cell-based; conditions: hCB2-CHO-K1 cells, forskolin-activated cAMP, pEC50=-log(EC50); read-out: CB2 pEC50 (converted)
Numbers only, in nM.

For each of the items listed, what is its EC50?
1. COC(=O)c1ccc(S(=O)(=O)c2ccc3c(c2)nc(C(C)(C)C)n3CC2CCCCC2)nc1
2. COc1cc(S(=O)(=O)c2ccc3c(c2)nc(C(C)(C)C)n3CC2CCOCC2)c(F)cn1

1. 0.407
2. 0.676
